These records show pIC50 for ALK6 (aa168-495) (Homo sapiens (Human), UniProt O00238).
To interpret pIC50, take it as minus log10 of a concentration measured in moles per litre.

# example entries with known answers
>>> measurement("Nc1ncc(-c2ccc([C@]34C[C@H]3CN(CCN3CCOCC3)C4)cc2)cc1C(=O)N[C@H]1CC[C@H](O)CC1")
5.52
>>> measurement("Nc1ncc(-c2ccc([C@]34C[C@H]3CN(C3COC3)C4)cc2)cc1C(=O)NC12CCC(O)(CC1)CC2")
5.46
>>> measurement("Nc1ncc(-c2ccc([C@@]34C[C@@H]3CN(C3CCOCC3)C4)cc2)cc1C(=O)N[C@H]1CC[C@H](O)CC1")
5.65
>>> measurement("Nc1ncc(-c2ccc(N3CCCCC3)cc2)cc1C(=O)NC1CCCCC1")
4.69
>>> measurement("CS(=O)(=O)N1CCC(N2C[C@H]3C[C@@]3(c3ccc(-c4cnc(N)c(C(=O)N[C@H]5CC[C@H](O)CC5)c4)cc3)C2)CC1")
6.13

Req: Record lookup: for ALK6 (aa168-495) (Homo sapiens (Human), UniProt O00238), what pIC50 belongs to [2H][C@]1(O)CC[C@H](NC(=O)c2cc(-c3ccc([C@]45C[C@H]4CN(C(C)C)C5)cc3)cnc2N)CC1 ?
Resp: 5.00

Req: Record lookup: for ALK6 (aa168-495) (Homo sapiens (Human), UniProt O00238), what pIC50 belongs to C[C@@H]1CCCN1Cc1ccc(-c2cnc(N)c(C(=O)N[C@H]3CC[C@](C)(O)CC3)c2)cc1F ?
Resp: 5.00

----------
Test system: BMP response element (BRE) luciferase reporter in HuH7 cells, BMP6 stimulated
testName: BMP signaling reporter gene assay
Format: cell-based
conditionSummary: Homo sapiens, Huh-7, 5 h, read-out: MSD BMP RGA IC50
measurementName: IC50 (nM)
Just the number please, in nM, no unit attached.

Req: Would you kindly share the measured IC50 for Nc1ncc(-c2ccc(CN3CC4(CCC4)C3)cc2)cc1C(=O)N[C@H]1CC[C@H](O)CC1 ?
Resp: 23

----------
These records show pIC50 for ALK6 (aa168-495) (Homo sapiens (Human), UniProt O00238).
To interpret pIC50, take it as minus log10 of a concentration measured in moles per litre.

>>> measurement("Nc1ncc(-c2ccc([C@]34C[C@H]3CN(C3CCC(F)(F)CC3)C4)cc2)cc1C(=O)N[C@H]1CC[C@H](O)CC1")
5.80
>>> measurement("Nc1ncc(-c2ccc([C@@]34C[C@@H]3CN(C(CF)CF)C4)cc2)cc1C(=O)N[C@H]1CC[C@H](O)CC1")
5.28
>>> measurement("C[C@H](c1ccc(-c2cnc(N)c(C(=O)N[C@H]3CC[C@H](O)CC3)c2)c(Cl)c1)N1CC2(COC2)C1")
5.54

Req: Would you kindly share the measured pIC50 for Nc1ncc(-c2ccc([C@@]34C[C@@H]3CN(C3CCOCC3)C4)cc2)cc1C(=O)N[C@@H]1CC[C@@H](O)[C@@H](F)C1 ?
Resp: 6.00

Req: Would you kindly share the measured pIC50 for Nc1ncc(-c2ccc([C@@]34C[C@@H]3CN(CCC(F)(F)F)C4)cc2)cc1C(=O)N[C@H]1CC[C@H](O)CC1 ?
Resp: 5.46

Req: Would you kindly share the measured pIC50 for Nc1ncc(-c2cccc(C(=O)N3CCOCC3)c2)cc1C(=O)NC1CCCCC1 ?
Resp: 4.69

Req: Would you kindly share the measured pIC50 for Nc1ncc(-c2ccc([C@]34C[C@H]3CN(C3CCOCC3)C4)cc2)cc1C(=O)NC12CCC(O)(CC1)CC2 ?
Resp: 5.39

Req: Would you kindly share the measured pIC50 for CC(C)N1C[C@H]2C[C@@]2(c2ccc(-c3cnc(N)c(C(=O)N[C@H]4CC[C@H](O)CC4)c3)cc2)C1 ?
Resp: 5.60

Req: Would you kindly share the measured pIC50 for CC(C)N1C[C@H]2C[C@@]2(c2ccc(-c3cnc(N)c(C(=O)NC45CC(CO)(C4)C5)c3)cc2)C1 ?
Resp: 5.14

Req: Would you kindly share the measured pIC50 for Nc1ncc(-c2ccc([C@]34C[C@H]3CN(CCCN3CCOCC3)C4)cc2)cc1C(=O)N[C@H]1CC[C@H](O)CC1 ?
Resp: 5.60

----------
measuredTarget: ALK5 (aa162-503) (Homo sapiens (Human), UniProt P36897)
Sequence (P36897 162-503): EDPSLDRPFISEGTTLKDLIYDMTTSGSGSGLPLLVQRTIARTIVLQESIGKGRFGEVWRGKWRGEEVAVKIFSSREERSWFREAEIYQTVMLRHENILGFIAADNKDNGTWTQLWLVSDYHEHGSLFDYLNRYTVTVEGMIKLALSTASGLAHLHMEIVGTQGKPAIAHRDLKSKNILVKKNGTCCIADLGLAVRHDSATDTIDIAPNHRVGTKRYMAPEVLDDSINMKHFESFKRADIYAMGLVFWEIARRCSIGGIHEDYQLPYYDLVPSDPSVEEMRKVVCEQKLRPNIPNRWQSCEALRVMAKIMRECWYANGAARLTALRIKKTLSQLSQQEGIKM
testName: Caliper biochemical peptide phosphorylation assay, ALK5
conditionSummary: 15 μm ATP, 60 min at 30° C.; read-out: ALK5 EPK (IC50)
API: label(entry) gives YES if the entry's IC50 is strictly smaller than 7 µM; on equality or larger values it gives NO.

Record excerpt, results attached:
>>> label("Nc1ncc(-c2ccc([C@]34C[C@H]3CN(C3COC3)C4)cc2)cc1C(=O)N[C@H]1CC[C@H](O)CC1")
"YES"
>>> label("CN1CCN(C(=O)c2ccc(-c3cnc(N)c(C(=O)NC4CCCCC4)c3)cc2)CC1")
"YES"
>>> label("CS(=O)(=O)N1CCC(N2C[C@H]3C[C@@]3(c3ccc(-c4cnc(N)c(C(=O)N[C@H]5CC[C@H](O)CC5)c4)cc3)C2)CC1")
"YES"
>>> label("CC(F)(F)CN1C[C@@H]2C[C@]2(c2ccc(-c3cnc(N)c(C(=O)N[C@H]4CC[C@H](O)CC4)c3)cc2)C1")
"NO"
>>> label("C[C@H](c1ccc(-c2cnc(N)c(C(=O)N[C@]3(C)CC[C@@H](O)CC3)c2)cc1)N1CC2(COC2)C1")
"NO"

Req: Report whether reported IC50 is lower than 7 µM (strictly) for C[C@H](c1ccc(-c2cnc(N)c(C(=O)NC34CC5CC(CC(O)(C5)C3)C4)c2)cc1)N1CC2(COC2)C1
Resp: NO

Req: Report whether reported IC50 is lower than 7 µM (strictly) for C#CCN1C[C@H]2C[C@@]2(c2ccc(-c3cnc(N)c(C(=O)N[C@H]4CC[C@H](O)CC4)c3)cc2)C1
Resp: YES

Req: Report whether reported IC50 is lower than 7 µM (strictly) for Nc1ncc(-c2ccc([C@]34C[C@H]3CN(CC(F)(F)F)C4)cc2)cc1C(=O)N[C@H]1CC[C@H](O)CC1
Resp: NO

----------
measuredTarget: ALK5 (aa162-503) (Homo sapiens (Human), UniProt P36897)
pIC50: −log10 of the molar value.
Please enter 1.0 where pIC50 is greater than or equal to 5, and 0.0 where it is lower.

Record excerpt, results attached:
>>> label("C[C@@H]1CCCN1Cc1ccc(-c2cnc(N)c(C(=O)N[C@H]3CC[C@H](O)CC3)c2)cc1")
1.0
>>> label("Nc1ncc(-c2ccc(CN3CC4(CCC4)C3)cc2)cc1C(=O)N[C@H]1CC[C@H](O)CC1")
1.0
>>> label("Nc1ncc(-c2cccc(C(=O)N3CCN(CCO)CC3)c2)cc1C(=O)NC1CCCCC1")
0.0
>>> label("Nc1ncc(-c2ccc([C@@]34C[C@@H]3CN(CCF)C4)cc2)cc1C(=O)N[C@H]1CC[C@H](O)CC1")
1.0
>>> label("Nc1ncc(-c2ccc([C@@]34C[C@@H]3CN(C3CCOCC3)C4)cc2)cc1C(=O)N[C@@H]1CC[C@@H](O)[C@@H](F)C1")
1.0
>>> label("CC(F)(F)CN1C[C@H]2C[C@@]2(c2ccc(-c3cnc(N)c(C(=O)N[C@H]4CC[C@H](O)CC4)c3)cc2)C1")
1.0
>>> label("CC#CCN1C[C@@H]2C[C@]2(c2ccc(-c3cnc(N)c(C(=O)N[C@H]4CC[C@H](O)CC4)c3)cc2)C1")
1.0
>>> label("Nc1ncc(-c2ccc([C@]34C[C@H]3CN(C3CCC(F)(F)CC3)C4)cc2)cc1C(=O)NC12CCC(O)(CC1)CC2")
1.0

Req: hey, is pIC50 for this one >= 5? Nc1ncc(-c2cccc(C(=O)N3CCOCC3)c2)cc1C(=O)NC1CCCCC1
Resp: 0.0

Req: hey, is pIC50 for this one >= 5? C[C@@H](c1ccc(-c2cnc(N)c(C(=O)N[C@H]3CC[C@H](O)CC3)c2)cc1)N1CC2(COC2)C1
Resp: 1.0

Req: hey, is pIC50 for this one >= 5? Nc1ncc(-c2ccc([C@@]34C[C@@H]3CN(C3CCN(CC(F)(F)F)CC3)C4)cc2)cc1C(=O)N[C@H]1CC[C@H](O)CC1
Resp: 1.0

----------
These records show pIC50 for ALK1 (aa166-493) (Homo sapiens (Human), UniProt P37023).
To interpret pIC50, take it as minus log10 of a concentration measured in moles per litre.

# example entries with known answers
>>> measurement("Nc1ncc(-c2ccc([C@@]34C[C@@H]3CN(C3CCOCC3)C4)cc2)cc1C(=O)N[C@H]1CC[C@H](O)CC1")
6.98
>>> measurement("[2H][C@]1(O)CC[C@H](NC(=O)c2cc(-c3ccc([C@]45C[C@H]4CN(C(C)C)C5)cc3)cnc2N)CC1")
6.51
>>> measurement("C[C@H](c1ccc(-c2cnc(N)c(C(=O)N[C@H]3CC[C@](C)(O)CC3)c2)cc1)N1CC2(COC2)C1")
6.11

Req: Would you kindly share the measured pIC50 for C[C@@H]1CCCN1Cc1ccc(-c2cnc(N)c(C(=O)N[C@H]3CC[C@](C)(O)CC3)c2)cc1 ?
Resp: 5.53

Req: Would you kindly share the measured pIC50 for Nc1ncc(-c2ccc([C@]34C[C@H]3CN(CC3COC3)C4)cc2)cc1C(=O)N[C@H]1CC[C@H](O)CC1 ?
Resp: 6.80

Req: Would you kindly share the measured pIC50 for CC(C)N1C[C@@H]2C[C@]2(c2ccc(-c3cnc(N)c(C(=O)N[C@H]4CC[C@H](O)CC4)c3)cc2)C1 ?
Resp: 6.90

Req: Would you kindly share the measured pIC50 for Nc1ncc(-c2ccc(N3CCNCC3)cc2F)cc1C(=O)N[C@H]1CC[C@H](O)CC1 ?
Resp: 6.55
